Hello, the source for this data is PubChem BioAssay, in case you need it.

System: F380Y
Experiment: modulators of BK channel variants, profiling panel, selectivity assay, cell-based, U2OS BacMam, thallium flux, beta subunits (AID 1259406);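 further: initial slope of Thallos dye fluorescence rise after thallium is added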
Conditions: at 30 µM
Just a reminder that ties go to false: only log fold change Tl+ flux strictly below 0.01 counts as true.

compound=CC(=O)OCC(=O)[C@@]12OC(C)(C)O[C@@H]1C[C@H]1[C@@H]3C[C@H](F)C4=CC(=O)C=C[C@]4(C)[C@@]3(F)[C@@H](O)C[C@@]12C class_label=true
compound=COc1ccc([C@@H]2Sc3ccccc3N(CCN(C)C)C(=O)[C@@H]2OC(C)=O)cc1 class_label=false
compound=CCN(CC)CC(=O)Nc1c(C)cccc1C class_label=true
compound="O=C(C1CCCCC1)N1CC(=O)N2CCc3ccccc3C2C1 (stereo unspecified)" class_label=false
compound=CCOC(=O)[C@H](CCc1ccccc1)N[C@H]1CCc2ccccc2N(CC(=O)O)C1=O class_label=true
compound=CCCc1cc(=O)[nH]c(=S)[nH]1 class_label=true
compound=c1ccc2c(CC3=NCCN3)cccc2c1 class_label=true
compound=COc1cc2nc(N3CCN(C(=O)c4ccco4)CC3)nc(N)c2cc1OC class_label=true
compound=CN(C)CC/C=C1\c2ccccc2COc2ccccc21 class_label=false
compound=NS(=O)(=O)c1cc2c(cc1Cl)NCNS2(=O)=O class_label=true
compound="NS(=O)(=O)c1cc(C2(O)NC(=O)c3ccccc32)ccc1Cl (stereo unspecified)" class_label=true
compound=CCCSc1ccc2nc(NC(=O)OC)[nH]c2c1 class_label=true
compound=COC(=O)Nc1nc2ccc(C(=O)c3ccccc3)cc2[nH]1 class_label=true
compound=NNC(=O)c1ccncc1 class_label=true
compound=CO[C@@]1(NC(=O)Cc2cccs2)C(=O)N2C(C(=O)O)=C(COC(N)=O)CS[C@@H]21 class_label=false
compound="Cc1cccc(CN2CCN(C(c3ccccc3)c3ccc(Cl)cc3)CC2)c1 (stereo unspecified)" class_label=false
compound=CCCNC(=O)NS(=O)(=O)c1ccc(Cl)cc1 class_label=true
compound=NC(N)=NC(=O)c1nc(Cl)c(N)nc1N class_label=true
compound="CCCNC(C)C(=O)Nc1ccccc1C (stereo unspecified)" class_label=false
compound=OC(Cn1cncn1)(Cn1cncn1)c1ccc(F)cc1F class_label=false
compound="CC(COc1ccccc1)N(CCCl)Cc1ccccc1 (stereo unspecified)" class_label=true
compound=O=c1[nH]cc(F)c(=O)[nH]1 class_label=true
compound=CC[C@H](C)C(=O)O[C@H]1C[C@H](O)C=C2C=C[C@H](C)[C@H](CC[C@@H](O)C[C@@H](O)CC(=O)O)[C@H]21 class_label=true
compound=C[C@@H]1O[C@@H](OC[C@H]2O[C@@H](Oc3c(-c4ccc(O)c(O)c4)oc4cc(O)cc(O)c4c3=O)[C@H](O)[C@@H](O)[C@@H]2O)[C@H](O)[C@H](O)[C@H]1O class_label=true
compound=O=C(O)c1cc(=O)c2c(OCC(O)COc3cccc4oc(C(=O)O)cc(=O)c34)cccc2o1 class_label=true
compound=CN1C(C(=O)Nc2ccccn2)=C(O)c2ccccc2S1(=O)=O class_label=false
compound=C[C@]12C=CC(=O)C=C1CC[C@@H]1[C@@H]2[C@@H](O)C[C@@]2(C)[C@H]1CC[C@]2(O)C(=O)CO class_label=false
compound="CN(C)CCOC(c1ccc(Cl)cc1)c1ccccn1 (stereo unspecified)" class_label=false
compound=CN(C)CCOC(c1ccccc1)c1ccccc1 class_label=false
compound=O=C(O)c1cccnc1 class_label=true
compound="CC(CN1c2ccccc2Sc2ccccc21)N(C)C (stereo unspecified)" class_label=false
compound=CN(C)CCN(Cc1ccccc1)c1ccccn1 class_label=true
compound=CC(=O)OCC(=O)[C@@]1(O)CC[C@H]2[C@@H]3CCC4=CC(=O)C=C[C@]4(C)[C@H]3[C@@H](O)C[C@@]21C class_label=false
compound=NS(=O)(=O)c1cc2c(cc1Cl)NC=NS2(=O)=O class_label=false
compound=C=C(CC)C(=O)c1ccc(OCC(=O)O)c(Cl)c1Cl class_label=true
compound=CCN(CC)CCOC(=O)c1ccc(N)cc1 class_label=true
compound=CCS(=O)(=O)CCn1c([N+](=O)[O-])cnc1C class_label=false
compound="CC(C)C1CCC(C(=O)N[C@H](Cc2ccccc2)C(=O)O)CC1 (stereo partly specified)" class_label=true
compound=Oc1ccc(/C=C/c2cc(O)cc(O)c2)cc1 class_label=false
compound=CN=C(NC#N)NCCSCc1nc[nH]c1C class_label=false
compound=Cc1cccc(Nc2ccncc2S(=O)(=O)NC(=O)NC(C)C)c1 class_label=false
compound=CCCCC1=NC2(CCCC2)C(=O)N1Cc1ccc(-c2ccccc2-c2nn[nH]n2)cc1 class_label=false
compound=Cn1cnc([N+](=O)[O-])c1Sc1ncnc2nc[nH]c12 class_label=true
compound=CC12CC3CC(C)(C1)CC(N)(C3)C2 class_label=false
compound="CC1COc2c(N3CCN(C)CC3)c(F)cc3c(=O)c(C(=O)O)cn1c23 (stereo unspecified)" class_label=false
compound=C#C[C@]1(O)CC[C@H]2[C@@H]3CCC4=Cc5oncc5C[C@]4(C)[C@H]3CC[C@@]21C class_label=true

* * *

Biological target: Mitogen-activated protein kinase 7 (Homo sapiens)
Test: ERK5 transactivation activators in reporter cells, primary screen, cell-based, HTS (AID 1508626);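 further: luciferase driven by Gal4-ERK5 fusion binding five Gal4 sites before minimal TATA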
Settings: HeLa Gal4-ERK5 transactivation, 18 h, at 5 µM
Calls of active or inactive are those of the source.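 The calls were made as follows: active = luciferase signal above three times the same-plate solvent-only control wells; inactive = the rest.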
Labels: active, inactive

molecule=Oc1c(Cl)cc(Cl)c2cccnc12 assayed_system="Mitogen-activated protein kinase 7 (Homo sapiens)" class_label=inactive
molecule=O=C1NC(=O)C(c2ccccc2)(c2ccccc2)N1 assayed_system="Mitogen-activated protein kinase 7 (Homo sapiens)" class_label=inactive
molecule=CCN(CC)CCNC(=O)c1ccc(N)cc1 assayed_system="Mitogen-activated protein kinase 7 (Homo sapiens)" class_label=inactive
molecule=NCC(=O)CCC(=O)O assayed_system="Mitogen-activated protein kinase 7 (Homo sapiens)" class_label=inactive
molecule="CC1COc2c(N3CCN(C)CC3)c(F)cc3c(=O)c(C(=O)O)cn1c23 (configuration not stated)" assayed_system="Mitogen-activated protein kinase 7 (Homo sapiens)" class_label=inactive
molecule=CCCNC(=O)NS(=O)(=O)c1ccc(Cl)cc1 assayed_system="Mitogen-activated protein kinase 7 (Homo sapiens)" class_label=active
molecule="Cc1c(OCC(F)(F)F)ccnc1CS(=O)c1nc2ccccc2[nH]1 (configuration not stated)" assayed_system="Mitogen-activated protein kinase 7 (Homo sapiens)" class_label=inactive
molecule=OCCN(CCO)c1nc(N2CCCCC2)c2nc(N(CCO)CCO)nc(N3CCCCC3)c2n1 assayed_system="Mitogen-activated protein kinase 7 (Homo sapiens)" class_label=inactive
molecule=CC(=O)OCC(=O)[C@@]1(O)CC[C@H]2[C@@H]3CCC4=CC(=O)C=C[C@]4(C)[C@H]3[C@@H](O)C[C@@]21C assayed_system="Mitogen-activated protein kinase 7 (Homo sapiens)" class_label=inactive
molecule=NNC(=O)c1ccncc1 assayed_system="Mitogen-activated protein kinase 7 (Homo sapiens)" class_label=inactive
molecule=NS(=O)(=O)c1cc2c(cc1Cl)NCNS2(=O)=O assayed_system="Mitogen-activated protein kinase 7 (Homo sapiens)" class_label=inactive
molecule=CN(C)CC/C=C1\c2ccccc2COc2ccccc21 assayed_system="Mitogen-activated protein kinase 7 (Homo sapiens)" class_label=inactive
molecule=CCCSc1ccc2nc(NC(=O)OC)[nH]c2c1 assayed_system="Mitogen-activated protein kinase 7 (Homo sapiens)" class_label=active
molecule="CN(C)CCOC(c1ccc(Cl)cc1)c1ccccn1 (configuration not stated)" assayed_system="Mitogen-activated protein kinase 7 (Homo sapiens)" class_label=inactive
molecule=CN=C(NC#N)NCCSCc1nc[nH]c1C assayed_system="Mitogen-activated protein kinase 7 (Homo sapiens)" class_label=inactive
molecule=S=c1nc[nH]c2nc[nH]c12 assayed_system="Mitogen-activated protein kinase 7 (Homo sapiens)" class_label=active
molecule="CN(C)CCOC(C)(c1ccccc1)c1ccccn1 (configuration not stated)" assayed_system="Mitogen-activated protein kinase 7 (Homo sapiens)" class_label=inactive
molecule=c1ccc2[nH]c(-c3cscn3)nc2c1 assayed_system="Mitogen-activated protein kinase 7 (Homo sapiens)" class_label=inactive
molecule=Cc1nc2ccccn2c(=O)c1CCN1CCC(C(=O)c2ccc(F)cc2)CC1 assayed_system="Mitogen-activated protein kinase 7 (Homo sapiens)" class_label=inactive
molecule=Cc1onc(-c2ccccc2)c1-c1ccc(S(N)(=O)=O)cc1 assayed_system="Mitogen-activated protein kinase 7 (Homo sapiens)" class_label=inactive
molecule=OCCN1CCN(CCCN2c3ccccc3Sc3ccc(C(F)(F)F)cc32)CC1 assayed_system="Mitogen-activated protein kinase 7 (Homo sapiens)" class_label=inactive
molecule="CC(C)Cc1ccc(C(C)C(=O)O)cc1 (configuration not stated)" assayed_system="Mitogen-activated protein kinase 7 (Homo sapiens)" class_label=inactive
molecule=CCCCc1oc2ccccc2c1C(=O)c1cc(I)c(OCCN(CC)CC)c(I)c1 assayed_system="Mitogen-activated protein kinase 7 (Homo sapiens)" class_label=inactive
molecule="OC(CCN1CCCC1)(c1ccccc1)C1CCCCC1 (configuration not stated)" assayed_system="Mitogen-activated protein kinase 7 (Homo sapiens)" class_label=inactive
molecule="CC(COc1ccccc1)NC(C)C(O)c1ccc(O)cc1 (configuration not stated)" assayed_system="Mitogen-activated protein kinase 7 (Homo sapiens)" class_label=inactive
molecule=CC1(C)O[C@@H]2C[C@H]3[C@@H]4C[C@H](F)C5=CC(=O)C=C[C@]5(C)[C@H]4[C@@H](O)C[C@]3(C)[C@]2(C(=O)CO)O1 assayed_system="Mitogen-activated protein kinase 7 (Homo sapiens)" class_label=active
molecule=C[C@]12CCC(=O)C=C1CC[C@@H]1[C@@H]2[C@@H](O)C[C@@]2(C)[C@H]1CC[C@]2(O)C(=O)CO assayed_system="Mitogen-activated protein kinase 7 (Homo sapiens)" class_label=inactive
molecule=O=C1[C@H](CC[C@H](O)c2ccc(F)cc2)[C@@H](c2ccc(O)cc2)N1c1ccc(F)cc1 assayed_system="Mitogen-activated protein kinase 7 (Homo sapiens)" class_label=inactive
molecule="COc1ccccc1OCCNCC(O)COc1cccc2[nH]c3ccccc3c12 (configuration not stated)" assayed_system="Mitogen-activated protein kinase 7 (Homo sapiens)" class_label=inactive
molecule=CCCN(CCC)S(=O)(=O)c1ccc(C(=O)O)cc1 assayed_system="Mitogen-activated protein kinase 7 (Homo sapiens)" class_label=inactive
molecule="CC(COc1ccccc1)N(CCCl)Cc1ccccc1 (configuration not stated)" assayed_system="Mitogen-activated protein kinase 7 (Homo sapiens)" class_label=inactive
molecule=C[C@@H]1C[C@H]2[C@@H]3CCC4=CC(=O)C=C[C@]4(C)[C@@]3(F)[C@@H](O)C[C@]2(C)[C@@]1(O)C(=O)CO assayed_system="Mitogen-activated protein kinase 7 (Homo sapiens)" class_label=inactive
molecule="CN(CCOc1ccc(CC2SC(=O)NC2=O)cc1)c1ccccn1 (configuration not stated)" assayed_system="Mitogen-activated protein kinase 7 (Homo sapiens)" class_label=inactive
molecule=O=S(=O)(O)CCS assayed_system="Mitogen-activated protein kinase 7 (Homo sapiens)" class_label=inactive
molecule=CCC(=O)O[C@]1(C(=O)CCl)[C@@H](C)C[C@H]2[C@@H]3CCC4=CC(=O)C=C[C@]4(C)[C@@]3(F)[C@@H](O)C[C@@]21C assayed_system="Mitogen-activated protein kinase 7 (Homo sapiens)" class_label=inactive
molecule=Cc1noc(NS(=O)(=O)c2ccc(N)cc2)c1C assayed_system="Mitogen-activated protein kinase 7 (Homo sapiens)" class_label=inactive
molecule=c1ccc([C@H]2CN3CCSC3=N2)cc1 assayed_system="Mitogen-activated protein kinase 7 (Homo sapiens)" class_label=inactive
molecule=CN(C)CCc1c[nH]c2ccc(C[C@H]3COC(=O)N3)cc12 assayed_system="Mitogen-activated protein kinase 7 (Homo sapiens)" class_label=inactive
molecule=Cn1c(=O)c2[nH]cnc2n(C)c1=O assayed_system="Mitogen-activated protein kinase 7 (Homo sapiens)" class_label=inactive
molecule="O=C(C1CCCCC1)N1CC(=O)N2CCc3ccccc3C2C1 (configuration not stated)" assayed_system="Mitogen-activated protein kinase 7 (Homo sapiens)" class_label=inactive
molecule="COc1cc2nc(N(C)CCCNC(=O)C3CCCO3)nc(N)c2cc1OC (configuration not stated)" assayed_system="Mitogen-activated protein kinase 7 (Homo sapiens)" class_label=inactive
molecule=CC(=O)OCC(CCn1cnc2cnc(N)nc21)COC(C)=O assayed_system="Mitogen-activated protein kinase 7 (Homo sapiens)" class_label=inactive
molecule=COc1ccc2c(c1)c(CC(=O)O)c(C)n2C(=O)c1ccc(Cl)cc1 assayed_system="Mitogen-activated protein kinase 7 (Homo sapiens)" class_label=inactive
molecule=N[C@@H](Cc1cc(I)c(Oc2cc(I)c(O)c(I)c2)c(I)c1)C(=O)O assayed_system="Mitogen-activated protein kinase 7 (Homo sapiens)" class_label=inactive
molecule=NC(=O)c1cnccn1 assayed_system="Mitogen-activated protein kinase 7 (Homo sapiens)" class_label=inactive
molecule=NS(=O)(=O)c1cc2c(cc1C(F)(F)F)NCNS2(=O)=O assayed_system="Mitogen-activated protein kinase 7 (Homo sapiens)" class_label=inactive
molecule=c1ccc2c(CC3=NCCN3)cccc2c1 assayed_system="Mitogen-activated protein kinase 7 (Homo sapiens)" class_label=inactive
